- experimental_system: T1, Bcl-w, Q92843
- T1 chain: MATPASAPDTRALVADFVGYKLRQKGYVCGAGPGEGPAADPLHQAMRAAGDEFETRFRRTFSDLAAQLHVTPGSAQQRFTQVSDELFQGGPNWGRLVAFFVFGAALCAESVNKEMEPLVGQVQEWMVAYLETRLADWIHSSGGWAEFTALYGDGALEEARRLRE
- assay_notes: fluorescence polarisation, direct titration of receptor into 10 nM labelled peptide
reported_property: Kd

For orientation, consider the following solved cases.
binder="NATHEEVVHLLRNAGDEVTITVEYLR [SNTG2]" reported_value="> 6.56 µM"
binder="FVGYNSTGAELRHWSDMLANPRRPIA [SYT1]" reported_value="> 4.35 µM"

Asked: Fill in the blank: the reported Kd of FKAWGKFGGAFCRYADEMKEIQERQR [PURB] is ____.
Given back: > 1.8 µM

Asked: Fill in the blank: the reported Kd of QRKHEGFERDLAALGDKVNSLGETAE [SPTAN1] is ____.
Given back: > 4.35 µM
